Measured pKd values are reported for all entries that follow.
Target: cholera toxin B subunit (CTB) (Vibrio cholerae serotype O1)
Sequence (P01556 22-124 limits assumed): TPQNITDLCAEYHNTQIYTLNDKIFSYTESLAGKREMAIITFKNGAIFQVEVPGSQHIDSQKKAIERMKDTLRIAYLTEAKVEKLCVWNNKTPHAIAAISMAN
Assay: biochemical
Assay type: binding
Hey, just a heads up that pKd is the negative log base 10 of the concentration in molar.

Compound | Reported Property | Measurement
O=C[C@H](O)[C@@H](O)[C@@H](O)[C@H](O)CO | pKd | 5.46
OC[C@H]1O[C@@H](O[C@H]2[C@H](O)[C@@H](O)C(O)O[C@@H]2CO)[C@H](O)[C@@H](O)[C@H]1O (mixture of isomers) | pKd | 4.06
OC[C@H]1OC(O)[C@H](O)[C@@H](O)[C@@H]1O (stereo partly shown) | pKd | 4.44

Lookup: Look at this compound and give its reported pKd. `OC[C@H]1O[C@@H]2O[C@H]3[C@H](O)[C@@H](O)[C@@H](O[C@H]4[C@H](O)[C@@H](O)[C@@H](O[C@H]5[C@H](O)[C@@H](O)[C@@H](O[C@H]6[C@H](O)[C@@H](O)[C@@H](O[C@H]7[C@H](O)[C@@H](O)[C@@H](O[C@H]8[C@H](O)[C@@H](O)[C@@H](O[C@H]1[C@H](O)[C@H]2O)O[C@@H]8CO)O[C@@H]7CO)O[C@@H]6CO)O[C@@H]5CO)O[C@@H]4CO)O[C@@H]3CO`
Found: 5.44

From: paper PMC3461998
